Cited source for all entries: patent US20220009894A1

System name: RORγt-LBD (Homo sapiens, UniProt P51449)
Method notes: Time-resolved fluorescence resonance energy-transfer assay (TR-FRET), co-activator peptide recruitment
Format: biochemical
Design: unit not given here
Run parameters: upper activation limit; His-RORγt-LBD, SRC peptide
Property: TR-FRET Biochemical Amax
Lab note: record the figure alone, no unit after it.

Asked: Report TR-FRET Biochemical Amax for C/C(=C\c1ccc2c(c1)N(S(=O)(=O)c1cccc(C(F)(F)F)c1)C[C@@H]1CN(S(C)(=O)=O)CCN21)c1c(F)cccc1Cl [Example 18]
Given back: 0.62

More entries:
Asked: State, in one line, measured TR-FRET Biochemical Amax of C/C(=C\c1ccc2c(c1)N(S(=O)(=O)c1cccc(C(F)(F)F)c1)C[C@H](CCC(=O)O)N2C)c1c(F)cccc1Cl [Example 3]
Given back: 1.20

* * *

List of TR-FRET Biochemical Amax values.
System name: UniProtKB P51449
Method notes: Time-resolved fluorescence resonance energy-transfer assay (TR-FRET), co-activator peptide recruitment
Assay type: biochemical
Design: unit not given here
Run parameters: upper activation limit; His-RORγt-LBD, SRC peptide
Respond numerically, and do not add a unit to the figure.

Asked: Specify TR-FRET Biochemical Amax for O=S(=O)(c1cccc(C(F)(F)F)c1)N1CC2CSCCN2c2ccc(-c3cc(F)cc(OC(F)F)c3)cc21 (stereo not drawn) , system UniProtKB P51449.
Given back: 0.84

Asked: Enter TR-FRET Biochemical Amax (test system UniProtKB P51449) for CC(=O)N1CCN2c3ccc(C4=CC(C)(C)OC(C)(C)C4)cc3N(S(=O)(=O)c3cccc(C(F)(F)F)c3)C[C@@H]2C1
Given back: 0.78

Asked: Report measured TR-FRET Biochemical Amax on UniProtKB P51449; entry: O=S(=O)(c1cccc(C(F)(F)F)c1)N1C[C@@H]2CNCCN2c2ccc(/C=C/c3c(Cl)cccc3C(F)(F)F)cc21
Given back: 0.82

Asked: GET TR-FRET Biochemical Amax | system: UniProtKB P51449 | item: O=S(=O)(c1cccc(C(F)(F)F)c1)N1C[C@@H]2CN(C(CO)CO)CCN2c2ccc(-c3cc(F)cc(OC(F)F)c3)cc21
Given back: 0.99

***
Asked: Report value only: TR-FRET Biochemical Amax, UniProtKB P51449, CN1c2ccc(-c3cc(F)cc(OC(F)F)c3)cc2N(S(=O)(=O)c2cccc(C(F)(F)F)c2)C[C@@H]1CCC(=O)O
Given back: 1.39

Asked: Please tell me the measured TR-FRET Biochemical Amax for O=C(O)CN1CCN2c3ccc(-c4cc(F)cc(OC(F)F)c4)cc3N(S(=O)(=O)c3cc(C(F)(F)F)cnc3OCCO)C[C@@H]2C1 ; system: UniProtKB P51449.
Given back: 0.47

* * *

System name: RORγt-LBD (Homo sapiens, UniProt P51449)
Method notes: Time-resolved fluorescence resonance energy-transfer assay (TR-FRET), co-activator peptide recruitment
Type: biochemical
Set-up: unit not given here
Run parameters: upper activation limit; His-RORγt-LBD, SRC peptide
Hi, to clarify the labels: MET covers TR-FRET Biochemical Amax from 0.8 upward, NOT MET covers anything below 0.8.

The following compounds have reported results that may help.
Asked: Hi, just wondering whether CC(C(=O)O)N1CCN2c3ccc(-c4cc(F)cc(OC(F)F)c4)cc3N(S(=O)(=O)c3cccc(C(F)(F)F)c3)C[C@@H]2C1 (stereo partly drawn) shows TR-FRET Biochemical Amax of 0.8 or higher.
Given back: NOT MET

Asked: Answer whether TR-FRET Biochemical Amax of O=S(=O)(c1cccc(C(F)(F)F)c1)N1C[C@@H]2CNCCN2c2ccc(-c3cc(F)cc(OC(F)F)c3)cc21 is greater than or equal to 0.8.
Given back: NOT MET

Asked: Is the recorded value of TR-FRET Biochemical Amax equal to or greater than 0.8 for this compound? C/C(=C\c1ccc2c(c1)N(S(=O)(=O)c1cccc(C(F)(F)F)c1)C[C@@H]1CN(CC(C)(C)O)CCN21)c1c(F)cccc1Cl
Given back: MET

Asked: Does TR-FRET Biochemical Amax meet or surpass 0.8 for NC(=O)C1(N2CCN3c4ccc(-c5cc(F)cc(OC(F)F)c5)cc4N(S(=O)(=O)c4cccc(C(F)(F)F)c4)C[C@@H]3C2)CCC1 ?
Given back: MET

Would you kindly look at the next entry?
Asked: Hello, I need to know if N#Cc1cccc(-c2ccc3c(c2)N(S(=O)(=O)c2cccc(C(F)(F)F)c2)C[C@@H]2CN(CC(=O)O)CCN32)c1F has measured TR-FRET Biochemical Amax not below 0.8. Thanks!
Given back: NOT MET

* * *

System name: RORγt (Homo sapiens, UniProt P51449)
Construct: The plasmid of pFN26A-RORγt-LBD and pG14.35 (Promega, Cat. No. E1370) were co-transfected into HEK 293 cells; expressed in transfected cells; host or cells: HEK 293 cells (Cat. No. GNHu18)
Sequence (P51449 269-508 limits assumed): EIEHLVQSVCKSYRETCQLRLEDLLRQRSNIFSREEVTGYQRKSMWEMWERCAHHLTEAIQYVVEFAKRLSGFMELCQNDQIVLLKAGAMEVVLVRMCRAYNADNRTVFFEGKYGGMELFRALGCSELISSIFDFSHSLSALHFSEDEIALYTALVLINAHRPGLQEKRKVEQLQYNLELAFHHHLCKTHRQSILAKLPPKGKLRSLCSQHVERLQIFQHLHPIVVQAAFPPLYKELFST
Method notes: RORγt cellular reporter gene detection assay;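 note: Ursolic Acid added as 5 µL of 20 µM medium per well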
Format: cell-based
Run parameters: upper activation limit; HEK 293 cells, in presence of antagonist Ursolic acid, 24 hrs
Please use label 1 whenever Cellular Reporter Assay Amax is not below 4, and label 0 whenever it is.

Asked: Confirm if Cellular Reporter Assay Amax reported for the molecule O=S(=O)(c1cccc(C(F)(F)F)c1)N1CC2CSCCN2c2ccc(-c3cc(F)cc(OC(F)F)c3)cc21 (stereo not drawn) is 4 or above.
Given back: label 1

Asked: For this molecule, is measured Cellular Reporter Assay Amax 4 or higher? COC(=O)C(C)N1CCN2c3ccc(/C=C(\C)c4c(F)cccc4Cl)cc3N(S(=O)(=O)c3cccc(C(F)(F)F)c3)C[C@@H]2C1 (stereo partly drawn)
Given back: label 0

Asked: Test whether the molecule NS(=O)(=O)N1CCN2c3ccc(/C=C/c4c(Cl)cccc4C(F)(F)F)cc3N(S(=O)(=O)c3cccc(C(F)(F)F)c3)C[C@@H]2C1 records Cellular Reporter Assay Amax of 4 or higher.
Given back: label 0

---
Asked: Say whether CC(C)OC(=O)OCOC(=O)CN1CCN2c3ccc(/C=C/c4c(Cl)cccc4C(F)(F)F)cc3N(S(=O)(=O)c3cccc(C(F)(F)F)c3)C[C@@H]2C1 shows Cellular Reporter Assay Amax of 4 or more.
Given back: label 1

Asked: Check the entry O=S(=O)(c1cccc(C(F)(F)F)c1)N1C[C@@H]2COCCN2c2ccc(-c3cc(F)cc(OC(F)F)c3)cc21 : does Cellular Reporter Assay Amax equal or exceed 4?
Given back: label 1

* * *

System name: RORγt-LBD (Homo sapiens, UniProt P51449)
Method notes: Time-resolved fluorescence resonance energy-transfer assay (TR-FRET), co-activator peptide recruitment
Run parameters: His-RORγt-LBD 30 nM, SRC peptide 500 nM; agonistic activity; averages of one or more measurements; read-out: TR-FRET Biochemical EC50/
Property: pEC50
// pEC50 here means minus log10 of the molar concentration (mol/L)

The cases that follow already have their pEC50 on record.
Asked: Tell me measured pEC50 for CC(C)(C(=O)O)N1CCN2c3ccc(/C=C/c4c(Cl)cccc4C(F)(F)F)cc3N(S(=O)(=O)c3cccc(C(F)(F)F)c3)C[C@@H]2C1 please.
Given back: 7.33

Asked: Hello, please tell me recorded pEC50 for this one: COC(=O)CN1CCN2c3ccc(-c4cc(F)cc(OC(F)F)c4)cc3N(S(=O)(=O)c3cc(C(F)(F)F)cnc3OCCO)C[C@@H]2C1
Given back: 7.69

Asked: For C/C(=C\c1ccc2c(c1)N(S(=O)(=O)c1cccc(C(F)(F)F)c1)C[C@@H]1CN(C3(C(N)=O)CCC3)CCN21)c1c(F)cccc1Cl , write its pEC50.
Given back: 7.55

Asked: Give the measured pEC50 for N#CC1(N2CCN3c4ccc(-c5cc(F)cc(OC(F)F)c5)cc4N(S(=O)(=O)c4cccc(C(F)(F)F)c4)C[C@@H]3C2)CCC1
Given back: 7.74

Asked: Answer with the recorded pEC50 for the compound listed here: C/C(=C\c1ccc2c(c1)N(S(=O)(=O)c1cccc(C(F)(F)F)c1)C[C@@H]1CN(S(C)(=O)=O)CCN21)c1c(F)cccc1Cl
Given back: 7.82

Next:
Asked: # return recorded pEC50 for input O=S(=O)(c1cccc(C(F)(F)F)c1)N1C[C@H]2COCCN2c2ccc(-c3cc(F)cc(OC(F)F)c3)cc21
Given back: 7.40

Asked: For N#CC(CO)(CO)N1CCN2c3ccc(-c4cc(F)cc(OC(F)F)c4)cc3N(S(=O)(=O)c3cccc(C(F)(F)F)c3)C[C@@H]2C1 , write its pEC50.
Given back: 7.35

Asked: Annotate the compound O=S(=O)(c1cccc(C(F)(F)F)c1)N1C[C@@H]2CN(C[C@@H](O)CO)CCN2c2ccc(/C=C/c3c(Cl)cccc3C(F)(F)F)cc21 with its measured pEC50.
Given back: 7.62

Asked: Give pEC50 for N#CC1(N2CCN3c4ccc(/C=C/c5c(Cl)cccc5C(F)(F)F)cc4N(S(=O)(=O)c4cccc(C(F)(F)F)c4)C[C@@H]3C2)CCC1
Given back: 8.28

Asked: Output measured pEC50 for this item: CC1(C)C=C(c2ccc3c(c2)N(S(=O)(=O)c2cccc(C(F)(F)F)c2)C[C@@H]2CN(C[C@@H](O)CO)CCN32)CC(C)(C)O1
Given back: 8.17

Asked: Give pEC50 for the following compound: O=C(O)CN1CCN2c3ccc(-c4cc(F)cc(OC(F)F)c4)cc3N(S(=O)(=O)c3cc(C(F)(F)F)cnc3OCCO)C[C@@H]2C1
Given back: 7.47

Asked: Return pEC50 (reported value) for this compound: NS(=O)(=O)N1CCN2c3ccc(-c4cc(F)cc(OC(F)F)c4)cc3N(S(=O)(=O)c3cccc(C(F)(F)F)c3)C[C@@H]2C1
Given back: 7.71
